- test.details: AUC (0 to t) in rat blood at 3 mg/kg, po
- Assay type: ADME, organism-based
- Design: dose 3 mg/kg, route oral
- condition.parameters: whole blood
quantity.kind: AUC(0-t) (ng·h/mL)

[
  {
    "smiles.repr": "O=C(c1ccc(-n2nc(C(F)(F)F)c3c2CCOC3)cc1)N1CCCC1",
    "unit.abbrev": "ng·h/mL",
    "AUC(0-t)": 1330
  },
  {
    "smiles.repr": "O=C1CCCN1Cc1ccc(-n2nc(C(F)(F)F)c3c2COCC3)cc1",
    "unit.abbrev": "ng·h/mL",
    "AUC(0-t)": 824
  },
  {
    "smiles.repr": "O=C1CCCN1Cc1ccc(-n2nc(C(F)(F)F)c3c2CCOC3)cc1",
    "unit.abbrev": "ng·h/mL",
    "AUC(0-t)": 972
  },
  {
    "smiles.repr": "O=C1CCCN1Cc1c(F)cc(-n2nc(C(F)(F)F)c3c2CCOC3)cc1F",
    "unit.abbrev": "ng·h/mL",
    "AUC(0-t)": 481
  }
]

(I) CN1CCc2c(C(F)(F)F)nn(-c3ccc(CN4CCCC4=O)cc3)c2C1
(II) O=C(c1ccc(-n2nc(C(F)(F)F)c3c2COCC3)cc1)N1CCCC1
Ask: Problem: Given the entries I and II , determine which has the lower reported AUC(0-t). Provide the label of your selected option as the answer.
Reply: I
(I: 294 ng·h/mL, II: 733 ng·h/mL)

* * *

- test.details: Oral bioavailability in Swiss Beagle dog at 0.5 mg/kg
- Type: ADME, organism-based, Canis lupus familiaris
- condition.parameters: in vivo
quantity.kind: bioavailability (%)
Reply numerically in %, unit not repeated.

The compound listed as O=C(c1ccc(-n2nc(C(F)(F)F)c3c2CCCC3)cc1)N1CCCC1 has a reported bioavailability of 12

* * *

- test.details: Clearance in cynomolgus monkey at 0.25 mg/kg, iv and 1 mg/kg, po
- Format: ADME, organism-based, Macaca fascicularis
- condition.parameters: in vivo
quantity.kind: clearance (mL/min/kg)
Reply numerically in mL/min/kg, unit not repeated.

The compound listed as O=C(c1ccc(-n2nc(C(F)(F)F)c3c2CCCC3)cc1)N1CCCC1 has a reported clearance of 38

* * *

- test.details: Tmax in cynomolgus monkey at 1 mg/kg, po
- Type: ADME, organism-based, Macaca fascicularis
- Design: dose 1 mg/kg, route oral
- condition.parameters: in vivo
quantity.kind: Tmax (h)
Reply numerically in h, unit not repeated.

The molecule listed as O=C(c1ccc(-n2nc(C(F)(F)F)c3c2CCCC3)cc1)N1CCCC1 has a reported Tmax of 1

* * *

- test.details: Clearance in rat at 3 mg/kg, po
- Type: ADME, organism-based
- Set-up: dose 3 mg/kg, route oral
- condition.parameters: in vivo
quantity.kind: CL/F (mL/min/kg)

These recorded examples may help you get a feel for the data.
[
  {
    "smiles.repr": "O=C1CCCN1Cc1ccc(-n2nc(C(F)(F)F)c3c2CCCC3)cc1F",
    "quantity.kind": "CL/F",
    "measured": 47
  },
  {
    "smiles.repr": "O=C(c1ccc(-n2nc(C(F)(F)F)c3c2CCCC3)cc1)N1CCOCC1",
    "quantity.kind": "CL/F",
    "measured": 14
  },
  {
    "smiles.repr": "O=S1(=O)CCCN1Cc1ccc(-n2nc(C(F)(F)F)c3c2CCCC3)cc1",
    "quantity.kind": "CL/F",
    "measured": 41
  }
]

(a) O=C(Cc1ccc(-n2nc(C(F)(F)F)c3c2CCCC3)cc1)N1CCCC1
(b) O=C(c1ccc(-n2nc(C(F)(F)F)c3c2CCCC3)cc1)N1CCCC1
Ask: Could you kindly indicate whether a or b has the higher CL/F value? Provide the label of your selected option as the answer.
Reply: a
(a: 55 mL/min/kg, b: 12 mL/min/kg)

* * *

- test.details: Apparent permeability of the compound
- Format: ADME
- condition.parameters: not told
quantity.kind: Papp (×10⁻⁶ cm/s)

[
  {
    "smiles.repr": "O=C(c1ccc(-n2nc(C(F)(F)F)c3c2CCCC3)cc1)N1CCCC1",
    "unit.abbrev": "×10⁻⁶ cm/s",
    "Papp": 41.5
  },
  {
    "smiles.repr": "O=C(c1ccc(-n2nc(C(F)(F)F)c3c2COCC3)cc1)N1CCCC1",
    "unit.abbrev": "×10⁻⁶ cm/s",
    "Papp": 49
  },
  {
    "smiles.repr": "CS(=O)(=O)NCc1ccc(-n2nc(C(F)(F)F)c3c2CCCC3)cc1",
    "unit.abbrev": "×10⁻⁶ cm/s",
    "Papp": 33.5
  },
  {
    "smiles.repr": "O=C1CCCN1Cc1ccc(-n2nc(C(F)(F)F)c3c2COCC3)cc1",
    "unit.abbrev": "×10⁻⁶ cm/s",
    "Papp": 44
  },
  {
    "smiles.repr": "O=S1(=O)CCCN1Cc1ccc(-n2nc(C(F)(F)F)c3c2CCCC3)cc1",
    "unit.abbrev": "×10⁻⁶ cm/s",
    "Papp": 40
  },
  {
    "smiles.repr": "O=C1CCCN1Cc1ccc(-n2nc(C(F)(F)F)c3c2CCOC3)cc1",
    "unit.abbrev": "×10⁻⁶ cm/s",
    "Papp": 47
  },
  {
    "smiles.repr": "O=C1CCCN1Cc1ccc(-n2nc(C(F)(F)F)c3c2CCCC3)cc1F",
    "unit.abbrev": "×10⁻⁶ cm/s",
    "Papp": 42
  },
  {
    "smiles.repr": "CN1CCc2c(C(F)(F)F)nn(-c3ccc(CN4CCCC4=O)cc3)c2C1",
    "unit.abbrev": "×10⁻⁶ cm/s",
    "Papp": 43
  },
  {
    "smiles.repr": "O=C(c1ccc(-n2nc(C(F)(F)F)c3c2CCOC3)cc1)N1CCCC1",
    "unit.abbrev": "×10⁻⁶ cm/s",
    "Papp": 49.5
  },
  {
    "smiles.repr": "O=C1CCCN1Cc1c(F)cc(-n2nc(C(F)(F)F)c3c2CCOC3)cc1F",
    "unit.abbrev": "×10⁻⁶ cm/s",
    "Papp": 47
  },
  {
    "smiles.repr": "O=C(c1ccc(-n2nc(C(F)(F)F)c3c2CCCC3)cc1)N1CCOCC1",
    "unit.abbrev": "×10⁻⁶ cm/s",
    "Papp": 45.5
  }
]

* * *

This section lists IC50 readings for Cytochrome P450 2C19 (Homo sapiens, UniProt P33261).

[
  {
    "smiles.repr": "O=C(c1ccc(-n2nc(C(F)(F)F)c3c2COCC3)cc1)N1CCCC1",
    "IC50": "> 10 µM"
  },
  {
    "smiles.repr": "O=C(c1ccc(-n2nc(C(F)(F)F)c3c2CCOC3)cc1)N1CCCC1",
    "IC50": "> 10 µM"
  },
  {
    "smiles.repr": "CC(=O)Cc1ccc(-n2nc(C(F)(F)F)c3c2CCCC3)cc1",
    "IC50": "2 µM"
  }
]

Now for the compound whose IC50 we want.
The compound CN1CCc2c(C(F)(F)F)nn(-c3ccc(CN4CCCC4=O)cc3)c2C1 on Cytochrome P450 2C19 (Homo sapiens, UniProt P33261): IC50 was > 10 µM

* * *

- test.details: Tmax in Swiss Beagle dog at 0.5 mg/kg, po
- Format: ADME, organism-based, Canis lupus familiaris
- Parameters: dose 0.5 mg/kg, route oral
- condition.parameters: in vivo
quantity.kind: Tmax (min)
Reply numerically in min, unit not repeated.

The compound listed as O=C(c1ccc(-n2nc(C(F)(F)F)c3c2CCCC3)cc1)N1CCCC1 has a reported Tmax of 36

* * *

- test.details: Half life in Gottingen minipig at 1 mg/kg, po
- Assay type: ADME, organism-based, Sus scrofa
- Design: dose 1 mg/kg, route oral
- condition.parameters: pig, in vivo
quantity.kind: half-life (h)
Reply numerically in h, unit not repeated.

The compound listed as O=C(c1ccc(-n2nc(C(F)(F)F)c3c2CCCC3)cc1)N1CCCC1 has a reported half-life of 4.5

* * *

- test.details: Cmax in Sprague-Dawley rat at 3 mg/kg, po
- Format: ADME, organism-based
- Set-up: dose 3 mg/kg, route oral
- condition.parameters: in vivo
quantity.kind: Cmax (ng/mL)
Reply numerically in ng/mL, unit not repeated.

The compound listed as O=C(c1ccc(-n2nc(C(F)(F)F)c3c2CCCC3)cc1)N1CCCC1 has a reported Cmax of 245

* * *

- study.target: Glutamate receptor 2 (Homo sapiens)
- Sequence (P42262 whole entry, canonical isoform): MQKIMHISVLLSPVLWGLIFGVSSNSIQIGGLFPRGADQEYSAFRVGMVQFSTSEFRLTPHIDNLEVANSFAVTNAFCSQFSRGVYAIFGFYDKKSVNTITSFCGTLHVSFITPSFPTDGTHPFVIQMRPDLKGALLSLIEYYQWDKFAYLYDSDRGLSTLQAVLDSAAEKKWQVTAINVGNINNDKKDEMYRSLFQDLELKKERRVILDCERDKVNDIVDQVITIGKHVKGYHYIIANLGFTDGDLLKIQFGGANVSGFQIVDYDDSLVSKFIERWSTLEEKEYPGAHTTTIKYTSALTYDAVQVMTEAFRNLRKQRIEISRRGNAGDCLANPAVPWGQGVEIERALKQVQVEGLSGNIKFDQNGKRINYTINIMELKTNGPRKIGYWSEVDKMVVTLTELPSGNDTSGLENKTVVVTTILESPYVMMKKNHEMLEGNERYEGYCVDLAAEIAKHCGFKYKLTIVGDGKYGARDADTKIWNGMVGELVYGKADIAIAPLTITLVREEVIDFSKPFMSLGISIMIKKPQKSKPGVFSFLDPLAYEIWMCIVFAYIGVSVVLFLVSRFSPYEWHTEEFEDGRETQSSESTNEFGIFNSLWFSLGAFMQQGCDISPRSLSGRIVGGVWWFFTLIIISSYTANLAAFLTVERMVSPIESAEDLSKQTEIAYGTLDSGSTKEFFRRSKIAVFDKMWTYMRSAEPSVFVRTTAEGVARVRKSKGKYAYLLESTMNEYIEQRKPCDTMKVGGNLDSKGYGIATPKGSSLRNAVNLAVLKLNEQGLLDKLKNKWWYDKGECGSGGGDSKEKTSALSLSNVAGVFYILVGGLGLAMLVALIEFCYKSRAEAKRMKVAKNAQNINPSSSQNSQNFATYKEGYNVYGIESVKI
- test.details: Allosteric modulation of human recombinant GluA2 receptor flip isoform expressed in HEK293 cells assessed as potentiation of glutamate-induced calcium influx by Fluo-4/FLIPR method
- Assay type: cell-based
quantity.kind: EC50 (µM)

(a) O=S(=O)(NCc1ccc(-n2nc(C(F)(F)F)c3c2CCCC3)cc1)C1CC1
(b) CCC(=O)NCc1ccc(-n2nc(C(F)(F)F)c3c2CCCC3)cc1
(c) O=C1CCCN1Cc1ccc(-n2nc(C(F)(F)F)c3c2CCCC3)cc1F
Ask: // rank above by EC50: first = highest number As an answer, provide the labels arranged in the order called for.
Reply: a, b, c
(a: 10 µM, b: 2.51 µM, c: 1 µM)
